Every entry's value here was drawn from the supplement of paper PMC5998384.

- Tested on: HeLa Kyoto;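 note: synchronized HeLa Kyoto cells, proteins quantified by TMT10plex mass spectrometry, three biological replicates, mitosis taken 0.5 h after nocodazole release, G1/S directly after double thymidine block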
- Assay Remarks: thermal stability score vs G1/S (z-score of summed log2 fold changes over temperatures); higher = more thermally stable than in G1/S
- Test Context: cell cycle stage: mitosis
Threshold check on thermal stability score: at or above -1 gives rule met, strictly below gives rule not met.

Use these answered entries as a reference point.
MNRSHRHGAGSGCLGTMEVKSKFGAEFRRFSLERSKPGKFEEFYGLLQHVHKIPNVDVLVGYADIHGDLLPINNDDNYHKAVSTANPLLRIFIQKKEEADYSAFGTDTLIKKKNVLTNVLRPDNHRKKPHIVISMPQDFRPVSSIIDVDILPETHRRVRLYKYGTEKPLGFYIRDGSSVRVTPHGLEKVPGIFISRLVPGGLAQSTGLLAVNDEVLEVNGIEVSGKSLDQVTDMMIANSRNLIITVRPANQRNNVVRNSRTSGSSGQSTDNSLLGYPQQIEPSFEPEDEDSEEDDIIIEDNGVPQQIPKAVPNTESLESLTQIELSFESGQNGFIPSNEVSLAAIASSSNTEFETHAPDQKLLEEDGTIITL [PARD6B]
rule met
MSQSKGKKRNPGLKIPKEAFEQPQTSSTPPRDLDSKACISIGNQNFEVKADDLEPIMELGRGAYGVVEKMRHVPSGQIMAVKRIRATVNSQEQKRLLMDLDISMRTVDCPFTVTFYGALFREGDVWICMELMDTSLDKFYKQVIDKGQTIPEDILGKIAVSIVKALEHLHSKLSVIHRDVKPSNVLINALGQVKMCDFGISGYLVDSVAKTIDAGCKPYMAPERINPELNQKGYSVKSDIWSLGITMIELAILRFPYDSWGTPFQQLKQVVEEPSPQLPADKFSAEFVDFTSQCLKKNSKERPTYPELMQHPFFTLHESKGTDVASFVKLILGD [MAP2K6]
rule met
MPHIDNDVKLDFKDVLLRPKRSTLKSRSEVDLTRSFSFRNSKQTYSGVPIIAANMDTVGTFEMAKVLCKFSLFTAVHKHYSLVQWQEFAGQNPDCLEHLAASSGTGSSDFEQLEQILEAIPQVKYICLDVANGYSEHFVEFVKDVRKRFPQHTIMAGNVVTGEMVEELILSGADIIKVGIGPGSVCTTRKKTGVGYPQLSAVMECADAAHGLKGHIISDGGCSCPGDVAKAFGAGADFVMLGGMLAGHSESGGELIERDGKKYKLFYGMSSEMAMKKYAGGVAEYRASEGKTVEVPFKGDVEHTIRDILGGIRSTCTYVGAAKLKELSRRTTFIRVTQQVNPIFSEAC [GMPR2]
rule not met
MVPGAAGWCCLVLWLPACVAAHGFRIHDYLYFQVLSPGDIRYIFTATPAKDFGGIFHTRYEQIHLVPAEPPEACGELSNGFFIQDQIALVERGGCSFLSKTRVVQEHGGRAVIISDNAVDNDSFYVEMIQDSTQRTADIPALFLLGRDGYMIRRSLEQHGLPWAIISIPVNVTSIPTFELLQPPWTFW [PRADC1]
rule not met
MPGGLLLGDVAPNFEANTTVGRIRFHDFLGDSWGILFSHPRDFTPVCTTELGRAAKLAPEFAKRNVKLIALSIDSVEDHLAWSKDINAYNCEEPTEKLPFPIIDDRNRELAILLGMLDPAEKDEKGMPVTARVVFVFGPDKKLKLSILYPATTGRNFDEILRVVISLQLTAEKRVATPVDWKDGDSVMVLPTIPEEEAKKLFPKGVFTKELPSGKKYLRYTPQP [PRDX6]
rule not met

Here's the next entry for you.
Task: Is reported thermal stability score greater than or equal to -1 here: MAASVEQREGTIQVQGQALFFREALPGSGQARFSVLLLHGIRFSSETWQNLGTLHRLAQAGYRAVAIDLPGLGHSKEAAAPAPIGELAPGSFLAAVVDALELGPPVVISPSLSGMYSLPFLTAPGSQLPGFVPVAPICTDKINAANYASVKTPALIVYGDQDPMGQTSFEHLKQLPNHRVLIMKGAGHPCYLDKPEEWHTGLLDFLQGLQ [ABHD14B]
Result: rule not met
